Tested on: MCF7
Test: Cytotoxicity against human MCF7 cells after 72 hrs by MTT assay
Assay type: functional, cell-based
Conditions: MCF7, 72 h
pIC50: −log10 of the molar value.
measured_parameter: pIC50

Examples with answers:
molecule: CC(=O)O[C@@H]1CO[C@@H](O[C@H]2CC[C@]34C[C@]35CC[C@]3(C)[C@H]6[C@H](C)C[C@H]7O[C@@]6(C[C@@H]7C(C)(C)OC(C)=O)[C@H](O)[C@@]3(C)[C@@H]5CC[C@H]4C2(C)C)[C@H](O)[C@H]1O
study_target: MCF7
pIC50: < 4.00
--
molecule: C[C@@H]1C[C@H]2O[C@@]3(C[C@@H]2C(C)(C)O)[C@H](O)[C@@]2(C)[C@@H]4CC[C@H]5C(C)(C)C(=O)CC[C@@]56C[C@@]46CC[C@]2(C)[C@@H]13
study_target: MCF7
pIC50: < 4.00
--
molecule: CC(=O)O[C@@H]1[C@@H](O)[C@H](O[C@H]2CC[C@]34C[C@]35C[C@@H](OC(C)=O)[C@]3(C)[C@H]6[C@H](C)C[C@@]7(CC[C@]8(C)O[C@H]78)O[C@H]6C[C@@]3(C)[C@@H]5CC[C@H]4C2(C)C)OC[C@H]1O
study_target: MCF7
pIC50: < 4.00

According to the records, this molecule CC(=O)O[C@@H]1C[C@@]23C[C@@]24CC[C@H](O[C@@H]2OC[C@@H](O)[C@H](O)[C@H]2O)C(C)(C)[C@@H]4CC[C@H]3[C@]2(C)[C@@H](O)[C@@]34C[C@H](C(C)(C)OC(C)=O)[C@@H](C[C@@H](C)[C@@H]3[C@@]12C)O4 displays pIC50 of 4.32
